target.desc: Free fatty acid receptor 1 (Homo sapiens, UniProt O14842)
Sequence (O14842 whole entry): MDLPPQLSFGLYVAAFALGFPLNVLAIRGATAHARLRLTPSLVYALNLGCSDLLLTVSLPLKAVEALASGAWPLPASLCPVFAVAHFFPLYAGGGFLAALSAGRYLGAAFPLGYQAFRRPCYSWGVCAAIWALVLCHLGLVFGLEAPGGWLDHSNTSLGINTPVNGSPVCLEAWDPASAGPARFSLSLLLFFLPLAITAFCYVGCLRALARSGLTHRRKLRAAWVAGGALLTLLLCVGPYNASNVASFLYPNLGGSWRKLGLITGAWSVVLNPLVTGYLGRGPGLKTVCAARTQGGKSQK
experiment.notes: Agonist activity at human GPR40 expressed in CHO-A12 cells assessed as increase in intracellular calcium flux measured for 100 secs by FLIPR assay
Type: functional, cell-based
pEC50: −log10 of the molar value.
reported.property: pEC50

Please review the entries below; each comes with its answer.
Cc1cccc(Oc2ccc(N3CCC[C@H]3CC(=O)O)cc2)c1 :: 6.59
CC(C)(C)c1ccccc1Oc1ccc(N2CCC[C@H]2CC(=O)O)cc1 :: 5.19
O=C(O)C[C@@H]1CCCN1c1ccc(Oc2ccccc2-c2ccccc2)cc1 :: 5.46
Cc1ccccc1Cc1ccc(N2CC[C@H](c3ccccc3)[C@H]2CC(=O)O)cc1 :: 4.96
COc1ccc(Oc2ccc(N3CCC[C@H]3CC(=O)O)cc2)cc1 :: 6.28

1. O=C(O)C1CCN(c2ccc(OCc3ccc(Cl)cc3Cl)cc2)C1 (stereo not given)
2. O=C(O)C[C@@H]1CCCN1c1ccc(Oc2ccc(Cl)cc2Cl)cc1
Prompt: Hey, which is lower on measured pEC50, 1 or 2 ? Let me know the label of the one you choose.
Response: 1

---

target.desc: Free fatty acid receptor 1 (Mus musculus, UniProt Q76JU9)
Sequence (Q76JU9 whole entry): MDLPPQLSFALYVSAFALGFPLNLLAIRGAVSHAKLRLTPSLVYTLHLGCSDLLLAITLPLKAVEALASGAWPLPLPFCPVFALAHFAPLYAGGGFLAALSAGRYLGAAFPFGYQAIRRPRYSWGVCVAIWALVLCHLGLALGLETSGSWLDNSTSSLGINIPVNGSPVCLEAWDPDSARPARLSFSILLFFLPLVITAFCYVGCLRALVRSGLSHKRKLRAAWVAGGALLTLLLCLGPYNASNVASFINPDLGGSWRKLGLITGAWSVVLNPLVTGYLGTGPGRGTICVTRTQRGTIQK
experiment.notes: Agonist activity at mouse GPR40 expressed in CHO-A12 cells assessed as increase in intracellular calcium flux measured for 100 secs by FLIPR assay
Assay type: functional, cell-based
reported.property: EC50

Example compounds with recorded EC50:
Cc1c(Cl)cccc1Oc1ccc(N2C[C@@H](C(F)(F)F)C[C@H]2CC(=O)O)cc1 :: 0.43 µM
COc1ccc(Oc2ccc(N3CCC[C@H]3CC(=O)O)cc2)cc1 :: > 33 µM
Cc1ccccc1Sc1ccc(N2CCC[C@H]2CC(=O)O)cc1 :: > 17 µM
O=C(O)C[C@@H]1CCCN1c1ccc(OCc2ccc(Cl)cc2Cl)cn1 :: > 33 µM

Prompt: Report measured EC50; entry is O=C(O)C[C@H]1CCCN1c1ccc(OCc2ccc(Cl)cc2Cl)cc1
Response: > 17 µM

---

experiment.notes: Clearance in CD-1 mouse at 0.2 mg/kg, iv by LC-MS/MS analysis
Type: ADME, organism-based
experimental.context: in vivo
reported.property: clearance (mL/min/kg)
Report as a plain number; the unit mL/min/kg is understood.

Prompt: For the molecule COc1ccc(F)c(-c2ccc(Cc3ccc(N4C[C@H](C(F)(F)F)C[C@@H]4CC(=O)O)cc3)c(C)c2)c1 , give its reported clearance.
Response: 0.2

---

// endpoint pKi / system Free fatty acid receptor 1 (Homo sapiens)
pKi: −log10 of the molar value.
reported.property: pKi

// known answers, use as guide
Cc1ccccc1Cc1ccc(N2C[C@@H](C(F)(F)F)C[C@H]2CC(=O)O)cc1 :: 7.14
Cc1c(Cl)cccc1Oc1ccc(N2C[C@@H](C(F)(F)F)C[C@H]2CC(=O)O)cc1 :: 7.89
Cc1ccccc1Oc1ccc(N2CCC[C@H]2CC(=O)O)cc1 :: 5.36

P. O=C(O)C[C@@H]1CCCN1c1ccc(Oc2ccccc2F)cc1
Q. O=C(O)C[C@@H]1CCCN1c1ccc(Oc2ccccc2)cc1
R. Cc1cccc(Oc2ccc(N3C[C@@H](C(F)(F)F)C[C@H]3CC(=O)O)cc2)c1C
S. Cc1ccccc1Cc1ccc(N2CC[C@H](C)[C@H]2CC(=O)O)cc1
T. Cc1cc(OCc2ccccc2)ccc1Oc1ccc(N2C[C@@H](C(F)(F)F)C[C@H]2CC(=O)O)cc1
Prompt: Ranking field: pKi; order: falling. Record the ranking as a list of labels in the requested order.
Response: T, R, S, P, Q
(T: 8.00, R: 7.22, S: 6.51, P: 5.89, Q: 5.19)

1. Cc1ccccc1Cc1ccc(N2CCC[C@H]2CC(=O)O)cc1
2. Cc1ccccc1Cc1ccc(N2CCC[C@@]2(C)CC(=O)O)cc1
3. CO[C@H]1C[C@@H](CC(=O)O)N(c2ccc(Oc3ccccc3C)cc2)C1
Prompt: Order the items by recorded pKi; the first position goes to the largest value. Your reply should list the labels following the order given in the request.
Response: 1, 3, 2
(1: 5.89, 3: 5.05, 2: 4.64)

---

target.desc: Free fatty acid receptor 1 (Homo sapiens)
experiment.notes: Agonist activity at human GPR40 expressed in CHO-A12 cells assessed as increase in intracellular calcium flux measured for 100 secs by FLIPR assay
Format: functional, cell-based
pEC50: −log10 of the molar value.
reported.property: pEC50

For orientation, consider the following solved cases.
O=C(O)C[C@@H]1CCCN1c1ccc(OCc2ccc(Cl)cc2Cl)cn1 :: 6.66
Cc1ccccc1COc1ccc(N2CCC[C@H]2CC(=O)O)cn1 :: 6.35
Cc1ccccc1Cc1ccc(N2C[C@@H](F)C[C@H]2CC(=O)O)cc1 :: 7.13

A. Cc1cccc(Oc2ccc(N3C[C@@H](C(F)(F)F)C[C@H]3CC(=O)O)cc2)c1C
B. O=C(O)CC1CCCCCN1c1ccc(OCc2ccc(Cl)cc2Cl)cc1 (single isomer, unassigned; enantiomer 1)
Prompt: Larger number for pEC50: A , or B ? Let me know the label of the one you choose.
Response: A
(A: 6.96, B: 5.19)

---

target.desc: Free fatty acid receptor 1 (Homo sapiens)
experiment.notes: Agonist activity at human GPR40 expressed in CHO-A12 cells assessed as increase in intracellular calcium flux measured for 100 secs by FLIPR assay
Format: functional, cell-based
reported.property: EC50 (nM)

Please review the following examples before continuing.
COc1ccc(F)c(-c2ccc(Cc3ccc(N4CCC[C@H]4CC(=O)O)cc3)c(C)c2)c1 :: 220
COc1ccc(F)c(-c2cccc(Oc3ccc(N4CCC[C@H]4CC(=O)O)cc3)c2C)c1 :: 310
Cc1cccc(C)c1Oc1ccc(N2C[C@@H](C(F)(F)F)C[C@H]2CC(=O)O)cc1 :: 82
Cc1ccc(Oc2ccc(N3CCC[C@H]3CC(=O)O)cc2)cc1 :: 490
O=C(O)C[C@@H]1CCCN1c1ccc(OCc2ccc(Cl)cc2Cl)cc1 :: 340
O=C(O)C[C@@H]1CCN1c1ccc(OCc2ccc(Cl)cc2Cl)cc1 :: 260

a. Cc1cc(OCc2ccc(Cl)cc2Cl)ccc1N1CCC[C@H]1CC(=O)O
b. COc1ccc(F)c(-c2ccc(Cc3ccc(N4C[C@@H](C(F)(F)F)C[C@H]4CC(=O)O)cc3)c(C)c2)c1
c. Cc1ccccc1Oc1ccc(N2C[C@@H](C(F)(F)F)C[C@H]2CC(=O)O)cc1
Prompt: Sort the 3 compounds by EC50; largest first, smallest last. Returns: the labels arranged in the requested order.
Response: a, b, c
(a: 8900 nM, b: 490 nM, c: 73 nM)

---

target.desc: Free fatty acid receptor 1 (Mus musculus)
experiment.notes: Intrinsic activity at mouse GPR40 expressed in CHO-A12 cells assessed as increase in intracellular calcium flux at 8.3 uM measured for 100 secs by FLIPR assay […]
Type: functional, cell-based
reported.property: Intrinsic activity (%)

Cc1cccc(Oc2ccc(N3CCC[C@H]3CC(=O)O)cc2)c1 :: 83
O=C(O)C[C@@H]1CCCN1c1ccc(Oc2ccccc2-c2ccccc2)cc1 :: 72
O=C(O)C[C@@H]1C[C@H](C(F)(F)F)CN1c1ccc(Oc2ccccc2C(F)(F)F)cc1 :: 42
Cc1cccc(C)c1Oc1ccc(N2C[C@@H](C(F)(F)F)C[C@H]2CC(=O)O)cc1 :: 36
COc1ccc(F)c(-c2ccc(Cc3ccc(N4C[C@H](C(F)(F)F)C[C@@H]4CC(=O)O)cc3)c(C)c2)c1 :: 210

I. O=C(O)C[C@@H]1CCCN1c1ccc(Oc2ccc(Cl)cc2Cl)cc1
II. Cc1ccccc1Oc1ccc(N2C[C@@H](C(F)(F)F)C[C@H]2CC(=O)O)cc1
Prompt: Task for the reader: decide whether I or II has the larger Intrinsic activity. When you have decided, please share the label of that item.
Response: I

---

target.desc: Free fatty acid receptor 1 (Mus musculus)
experiment.notes: Agonist activity at mouse GPR40 expressed in CHO-A12 cells assessed as increase in intracellular calcium flux measured for 100 secs by FLIPR assay
Format: functional, cell-based
reported.property: EC50 (µM)

COc1ccc(Oc2ccc(N3C[C@@H](C(F)(F)F)C[C@H]3CC(=O)O)cc2)c(C)c1 :: 0.17
COc1ccc(F)c(-c2ccc(Cc3ccc(N4C[C@H](C(F)(F)F)C[C@H]4CC(=O)O)cc3)c(C)c2)c1 :: 1.1
O=C(O)C[C@@H]1CCCN1c1ccc(Oc2ccc(Cl)cc2Cl)cc1 :: 3.2

P. COc1ccc(F)c(-c2ccc(Cc3ccc(N4C[C@@H](C(F)(F)F)C[C@H]4CC(=O)O)cc3)c(C)c2)c1
Q. Cc1ccccc1Oc1ccc(N2CCC[C@H]2CC(=O)O)cc1
Prompt: Could you tell me which of P and Q has the lower EC50 reading? In your reply, give the label of the chosen option.
Response: P
(P: 2.4 µM, Q: 5.6 µM)

---

experiment.notes: Half life in cynomolgus monkey liver microsomes
Assay type: ADME, Macaca fascicularis, microsome
reported.property: half-life

Prompt: Please supply the value of reported half-life for the item COc1ccc(F)c(-c2ccc(Cc3ccc(N4C[C@H](C(F)(F)F)C[C@@H]4CC(=O)O)cc3)c(C)c2)c1
Response: > 2 h
